Molecular target: T1, thyroid stimulating hormone receptor (full length human TSHR) (human, UniProt P16473 22-764)
T1 construct: Full length TSHR coated onto plastic tubes (TSHR coated tubes, as in WO2004/050708A2); also called TSH receptor
Test: competitor ^125I-K1-70 IgG, TSHR coated tubes; 10 µg/mL in HBD
As shown below, each of these binders has a reported Inhibition of binding (%) value.

Examples with answers:
{"columns": ["binder", "Inhibition of binding (%)"],
 "data": [
  ["K1-18 Fab (Fab, V domains shown) VH: EVQLVQSGAEVKKPGESLKISCKGSGYSFTNYWIGWVRQMPGKGLEWMGIIYPYDSDTRYSPSFEGQVTISADKSIRTAYLHWSSLKASDTAMYYCVRPRDGSYPYDAFDIWGQGTMVTVSS VL: EIVLTQSPGTLSLSPGERATLSCRASQSVSNNYLAWYQQKPGQAPRLLIYGASSRATGIPDRFSGSGSGTDFTLTISRLEPEDFAVYYCQHCGSSLRAFGQGTKVEIKR", "82%"],
  ["K1-18 IgG (antibody, V domains shown, Human IgG1 kappa purified from hetero-hybridoma supernatant; it is not part of the secreted protein; also called human monoclonal TSHR autoantibody K1-18 (stimulating)) VH: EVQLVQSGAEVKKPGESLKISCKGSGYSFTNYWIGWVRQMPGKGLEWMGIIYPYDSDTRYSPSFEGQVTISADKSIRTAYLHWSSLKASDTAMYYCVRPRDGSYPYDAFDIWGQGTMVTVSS VL: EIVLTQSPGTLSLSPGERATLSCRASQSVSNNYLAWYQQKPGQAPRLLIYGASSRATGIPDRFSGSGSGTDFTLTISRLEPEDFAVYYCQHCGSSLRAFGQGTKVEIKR", "92.5%"],
  ["K1-70 Fab (Fab, V domains shown) VH: EVQLVQSGAEVKKPGQSLKISCKASGYSLTDNWIGWVRQKPGKGLEWMGIIYPGDSDTRYSPSFQGQVTISADKSINTAYLQWSSLKASDTAIYYCVGLDWNYNPLRYWGPGTLVTVSS VL: QSVLTQPPSVSAAPGQKVTISCSGSSSDIGSNYVSWYQQFPGTAPKLLIYDNNKRPSAIPDRFSGSKSGTSATLGITGLQTGDEADYYCGTWDSRLGIAVFGGGTQLTVLG", "90.6%"]
]}

Next up:
Entry under review: K1-70 IgG (antibody, V domains shown, Human IgG1 lambda purified from hetero-hybridoma supernatant) VH: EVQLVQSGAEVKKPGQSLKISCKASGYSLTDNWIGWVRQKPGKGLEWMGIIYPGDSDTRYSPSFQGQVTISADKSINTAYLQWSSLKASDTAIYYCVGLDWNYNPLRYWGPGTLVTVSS VL: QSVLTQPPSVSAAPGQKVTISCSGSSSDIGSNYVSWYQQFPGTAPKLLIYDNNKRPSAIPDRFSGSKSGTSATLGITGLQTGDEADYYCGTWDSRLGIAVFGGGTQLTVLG . Reported Inhibition of binding (%)?
93.1%

Each recorded value in this set is attributed to patent US20110300138A1.
